// reported CC50 for each item listed
- Assay Overview: Cytotoxicity against mouse J774A1 cells by MTT assay
- Format: cell-based, J774.A1
# value in µg/mL; strip the unit string

Example results:
O=[N+]([O-])c1ccc(OC(Cn2ccnc2)c2ccccc2)c(F)c1 (stereo not drawn): 21.2
CC(CCn1ccnc1)Oc1ccc([N+](=O)[O-])cc1C(F)(F)F (stereo not drawn): 7.73
C[C@@H](Cn1ccnc1)[C@@H](Oc1ccc(C(F)(F)F)cc1)c1ccccc1 (relative stereo): 21.7
O=[N+]([O-])c1ccc(OC(COc2ccccc2)Cn2ccnc2)cc1 (stereo not drawn): 28.1
C[C@@H](Cn1ccnc1)[C@@H](Oc1ccccc1[N+](=O)[O-])c1ccccc1 (relative stereo): 22.1
FC(F)(F)c1ccc(OC(Cn2ccnc2)c2ccccc2)cc1 (stereo not drawn): 28.4
CC(CCn1ccnc1)Oc1ccc([N+](=O)[O-])cc1 (stereo not drawn): 24.1
O=[N+]([O-])c1ccccc1OC(COc1ccccc1)Cn1ccnc1 (stereo not drawn): 36.2
O=[N+]([O-])c1ccccc1OC(Cn1ccnc1)c1ccccc1 (stereo not drawn): 25.1
FC(F)(F)c1ccc(OC(COc2ccccc2)Cn2ccnc2)cc1 (stereo not drawn): 17.9

The molecule FC(F)(F)c1ccc(OC(CCn2ccnc2)c2ccccc2)cc1 (stereo not drawn) showed CC50 equal to 17.2

The molecule O=[N+]([O-])c1ccc(OC(CCn2ccnc2)c2ccccc2)cc1 (stereo not drawn) showed CC50 equal to 25.1
